# TEST SYSTEM: α/β TCR/CD3 complex on Jurkat, Clone E6-1 cells (human) (UniProt P07766)
# ASSAY REMARKS: flow cytometry on Jurkat Clone E6-1 cells, Fab titration 10 µg/ml to 10 ng/ml; AUC of MFI vs log concentration, gain vs TPP-1374
Exercise: for every item that follows, state its recorded % gain in binding AUC.
One number for each entry, in %.

Provide the reported % gain in binding AUC of each entry below, same order.
1. TPP-1363 Fab fragment (Fab, V domains shown) VH: EVQLVQSGAEVKKPGASVKVSCKASGYKFTSYVMHWVRQAPGQGLEWMGYINPYKDVTKYAEKFQGRVTLTSDTSTSTAYMELSSLRSEDTAVYYCARGSYYDYEGFVYWGQGTLVTVSS VL: QIQMTQSPSSLSASVGDRVTITCSATSSVSYMHWYQQKPGKAPKRWIYDTSKLASGVPSRFSGSGSGTDYTLTISSLQPEDAATYYCQQWSSNPLTFGGGTKVEIKR
2. TPP-1390 Fab fragment (Fab, V domains shown) VH: EVQLVQSGAEVKKPGASVKVSCKASGYKFTSYVMHWVRQAPGQGLEWMGYINPRNDVTKYAEKFQGRVTLTSDTSTSTAYMELSSLRSEDTAVYYCARGSYYDYEGFVYWGQGTLVTVSS VL: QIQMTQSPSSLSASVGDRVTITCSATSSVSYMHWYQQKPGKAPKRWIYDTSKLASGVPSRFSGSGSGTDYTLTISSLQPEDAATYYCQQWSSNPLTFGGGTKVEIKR
3. TPP-1375 Fab fragment (Fab, V domains shown) VH: EVQLVQSGAEVKKPGASVKVSCKASGYKFRSYVMHWVRQAPGQGLEWMGYINPYNDVTKYAEKFQGRVTLTSDTSTSTAYMELSSLRSEDTAVHYCARGSYYDYEGFVYWGQGTLVTVSS VL: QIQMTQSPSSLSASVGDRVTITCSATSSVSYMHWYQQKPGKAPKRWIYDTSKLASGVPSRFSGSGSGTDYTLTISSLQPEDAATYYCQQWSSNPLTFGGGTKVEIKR
4. TPP-1392 Fab fragment (Fab, V domains shown) VH: EVQLVQSGAEVKKPGASVKVSCKASGYKFTSYVMHWVRQAPGQGLEWMGYINPRNDVTKYAEKFQGRVTLTSDTSTSTAYMELSSLRSEDTAVYYCARGSYYDYEGFVYWGQGTLVTVSS VL: QIQMTQSPSSLSASVGDRVTITCSATSSVSYMHWYQQKPGKAPKRWIYDTSKLARGVPSRFSGSGSGTDYTLTISSLQPEDAATYYCQQWSSNPLTFGGGTKVEIKR
5. TPP-1367 Fab fragment (Fab, V domains shown) VH: EVQLVQSGAEVKKPGASVKVSCKASGYKFTSYVMHWVRQAPGQGLEWMGYINPYNDVTKYAEKFQGRVTLTSDTSTSTAYMELSSLRSEDTAVHYCARGSYYDYEGFVYWGQGTLVTVSS VL: QIQMTQSPSSLSASVGDRVTITCSATSSVSYMHWYQQKPGKAPKRWIYDTSKLARGVPSRFSGSGSGTDYTLTISSLQPEDAATYYCQQWSSNPLTFGGGTKVEIKR
6. TPP-1384 Fab fragment (Fab, V domains shown) VH: EVQLVQSGAEVKKPGASVKVSCKASGYKFTSYVMHWVRQAPGQGLEWMGYINPYNDVTKYAEKFQGRVTLTSDTSTSTAYMELSSLRSEDTAVHYCARGSYYDYEGFVYWGQGTLVTVSS VL: QIQMTQSPSSLSASVGDRVTITCSATSSVSYMHWYQQKPGKAPKRWIYDTSKLAKGVPSRFSGSGSGTDYTLTISSLQPEDAATYYCQQWSSNPLTFGGGTKVEIKR
7. TPP-1372 Fab fragment (Fab, V domains shown) VH: EVQLVQSGAEVKKPGASVKVSCKASGYKFTSYVMHWVRQAPGQGLEWMGYINPYKDVTKYAEKFQGRVTLTSDTSTSTAYMELSSLRSEDTAVYYCARGSYYDYEGFVYWGQGTLVTVSS VL: QIQMTQSPSSLSASVGDRVTITCSATSSVSYMHWYQQKPGKAPKRWIYDTSKLARGVPSRFSGSGSGTDYTLTISSLQPEDAATYYCQQWSSNPLTFGGGTKVEIKR
8. TPP-1393 Fab fragment (Fab, V domains shown) VH: EVQLVQSGAEVKKPGASVKVSCKASGYKFTSYVMHWVRQAPGQGLEWMGYINPYNDVTKYAEKFQGRVTLTSDTSTSTAYMELSSLRSEDTAVYYCARGSYYDYEGFVYWGQGTLVTVSS VL: QIQMTQSPSSLSASVGDRVTITCSATSSVSYMHWYQQKPGKAPKRWIYDTSKLARGVPSRFSGSGSGTDYTLTISSLQPEDAATYYCQQWSSNPLTFGGGTKVEIKR

[380, 270, 87, 813, 220, 203, 246, 226]

Provide the reported % gain in binding AUC of each entry below, same order.
1. TPP-1360 Fab fragment (Fab, V domains shown) VH: EVQLVQSGAEVKKPGASVKVSCKASGYKFTRYVMHWVRQAPGQGLEWMGYINPYNDVTKYAEKFQGRVTLTSDTSTSTAYMELSSLRSEDTAVHYCARGSYYDYEGFVYWGQGTLVTVSS VL: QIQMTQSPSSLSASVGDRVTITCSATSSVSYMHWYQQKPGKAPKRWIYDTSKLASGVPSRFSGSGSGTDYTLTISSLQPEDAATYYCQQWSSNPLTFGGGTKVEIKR
2. TPP-1391 Fab fragment (Fab, V domains shown) VH: EVQLVQSGAEVKKPGASVKVSCKASGYKFTSYVMHWVRQAPGQGLEWMGYINPYRDVTKYAEKFQGRVTLTSDTSTSTAYMELSSLRSEDTAVYYCARGSYYDYEGFVYWGQGTLVTVSS VL: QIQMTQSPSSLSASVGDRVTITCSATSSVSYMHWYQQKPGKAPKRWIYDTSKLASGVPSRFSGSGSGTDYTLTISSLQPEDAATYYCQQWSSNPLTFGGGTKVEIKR

[144, 245]
